Recorded values, source PubChem BioAssay (NCI).

Kindly state TGI for each of the entries shown.
- Test system: ACHN renal
- Assay Comment: NCI tumour cell line growth inhibition, 48 h

Worked cases, answers included:
INSERT INTO measurements (compound, measurement_name, value_reported) VALUES
  ('COC(=O)c1cn(CC(O)CCl)nn1 (configuration not stated)', 'TGI', '> 100 µM'),
  ('Cc1ccc2nc3cc(C)c(=O)cc-3sc2c1', 'TGI', '> 100 µM'),
  ('CC1SC2(CCCCC2)N(NC(=O)CSc2nc3ccc(Cl)cc3c(=O)n2-c2ccccc2)C1=O (configuration not stated)', 'TGI', '83.9 µM'),
  ('CCOC(=O)/C=C(\C(=O)OCC)n1cc(Cl)c(=O)n(CC(=O)OCC)c1=O', 'TGI', '3.02 µM'),
  ('CN1CCc2c(sc3ncn(Nc4ccc(Cl)cc4)c(=N)c23)C1', 'TGI', '> 100 µM'),
  ('C=CCOC(=O)N1c2ccc(O)cc2[C@@]23O[C@@]24[C@@H]1C#C/C=C\C#C[C@]3(O)C(OC)(OC)C[C@@H]4C', 'TGI', '72.3 µM');

Read the next record carefully.
-- ask Look up TGI of "C[C@H]1CNC(=O)c2cnn3ccc(nc23)N[C@H](C)c2cc(F)ccc2O1" and report it.
-- reply 4.36 µM
